Listing of entries alongside the reported TGI.
# Test system: A549 NSCLC
# measurement_protocol: NCI tumour cell line growth inhibition, 48 h

{"compound": "Clc1ccc(C2SCc3nc4ccccc4n32)c(Cl)c1 (stereo not given)", "TGI": "28.8 µM"}
{"compound": "CN(C)Nc1cc(=O)[nH]c(=O)[nH]1", "TGI": "> 100 µM"}
{"compound": "CC[C@]1(Cc2ccc(OC)c(OC)c2)C=[N+]([O-])O[C@H](OC2CCCC2(c2ccccc2)c2ccccc2)[C@@H]1OC(=O)c1ccccc1 (stereo not given in full)", "TGI": "> 100 µM"}
{"compound": "COc1ccc(C(=O)OC2C(OC3C(O)COC(O[C@H]4C[C@H]5[C@@H]6CC=C7C[C@@H](O)CC[C@]7(C)[C@H]6CC[C@]5(C)[C@H]4[C@H](C)C(=O)CCC(C)C)C3OC(N)=O)OCC(O)C2O)cc1 (stereo not given in full)", "TGI": "4.75 µM"}
{"compound": "O=C([O-])C[n+]1ccccc1", "TGI": "> 100 µM"}
{"compound": "CN(CCCCCl)P(=O)(OCc1ccc([N+](=O)[O-])o1)OC[C@H]1O[C@@H](n2cc(F)c(=O)[nH]c2=O)C[C@@H]1O (stereo not given in full)", "TGI": "> 26.4 µM"}
{"compound": "CCOC(=O)P(=O)(O)c1ccc(N(C)Cc2ccccc2)cc1", "TGI": "> 100 µM"}
{"compound": "CCc1n[nH]c(=O)n1/N=C/c1c(O)ccc2ccccc12", "TGI": "> 100 µM"}
{"compound": "COc1ccc(/C(COc2ccc3c(=O)cc(-c4ccccc4)oc3c2)=N\\O)cc1", "TGI": "> 50 µM"}
{"compound": "O=[N+]([O-])/C(C(Cl)=C(Cl)Cl)=C(\\N1CCOCC1)n1nnc2ccccc21", "TGI": "42.7 µM"}
{"compound": "CC(=O)C(=C(c1ccccc1)c1ccccc1)c1ccccc1", "TGI": "> 100 µM"}
{"compound": "CCS(CC)(CC)CC1CCCC2=CCC(P(=O)(c3ccccc3)c3ccccc3)CC21 (stereo not given)", "TGI": "18 µM"}
{"compound": "Cc1ccc(S(=O)(=O)n2cc(-c3cc(C(F)(F)F)ccn3)c3cc(Br)ccc32)cc1", "TGI": "51.8 µM"}
{"compound": "COc1cc2ccc(/C=C\\[N+](=O)[O-])cc2cc1OC", "TGI": "29.8 µM"}
{"compound": "CN(C)CCCSc1nc2ccccc2[nH]1", "TGI": "> 100 µM"}
{"compound": "COc1ccc(-c2c[nH]c(C(=O)O)c2-c2cc(OC)c(OC)c(OC)c2)cc1", "TGI": "> 100 µM"}
{"compound": "COc1ccc(Nc2nnc(-c3nsc4ccccc34)s2)cc1", "TGI": "> 100 µM"}
{"compound": "CCC[CH2][Sn]1([CH2]CCC)[O]C(=O)c2cccnc2[O]1", "TGI": "33 µM"}
{"compound": "CN(C)CCN1C(=O)c2ccccc2N(C)c2ccccc21", "TGI": "> 100 µM"}
{"compound": "CCOC(=O)/C(C#N)=C\\c1ccc(N(CCC(=O)O)CCC(=O)O)c(I)c1", "TGI": "> 10 µM"}

Recorded values, source PubChem BioAssay (NCI).
